growth inhibition values for the compounds below.
assay text: NCI Yeast Anticancer Drug Screen. Data for the rad50 strain (AID 155);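 note: 0% = growth of vehicle-only cultures of the same strain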
test context: S. cerevisiae rad50 strain growth inhibition; at 5.0 µM (retest, dose inferred, filed as 0.5); stronger effect = higher value
About 79,000 compounds went through this panel and 15% of them were active in at least one assay; those are over-represented in the sample as a whole. The source made the active and inactive calls. Cut-off read from the data, not from the text of the source: active = growth inhibition above about 70%; inactive = the rest.

[
  {
    "compound": "CC(C)CC[CH2][Pb]([CH2]CCC(C)C)([CH2]CCC(C)C)[O]C(=O)C(Cl)(Cl)Cl",
    "growth inhibition": "14% (inactive)"
  },
  {
    "compound": "CCOC(=O)C(c1ccsc1)P(=O)(OCC)OCC (stereo unspecified)",
    "growth inhibition": "11% (inactive)"
  },
  {
    "compound": "CCCCCCCCCCCCCC(=O)[O][Hg][c]1ccccc1",
    "growth inhibition": "99% (active)"
  },
  {
    "compound": "COc1ccc([Se][Se]c2ccc(OC)cc2OC)c(OC)c1",
    "growth inhibition": "18% (inactive)"
  },
  {
    "compound": "C[CH2][Pb]([CH2]C)([CH2]C)[O]C(=O)COc1ccc(Cl)cc1Cl",
    "growth inhibition": "29% (inactive)"
  },
  {
    "compound": "CCN1CCC(O)(c2ccc(O)cc2)C(C(=O)c2ccc(O)cc2)C1 (stereo unspecified)",
    "growth inhibition": "-9% (inactive)"
  },
  {
    "compound": "Cc1ccc2c(-c3ccccc3)c3ccccc3[s+]c2c1",
    "growth inhibition": "2% (inactive)"
  },
  {
    "compound": "COC1CC2C=C(C)/C=C/C=C/C(=O)NC(c3ccccc3)C/C=C/CCC(O)CC(=O)C2=C1O (stereo unspecified)",
    "growth inhibition": "97% (active)"
  },
  {
    "compound": "COC1OC(OC)[CH]([Hg][Cl])C1OC (stereo unspecified)",
    "growth inhibition": "99% (active)"
  },
  {
    "compound": "CCC(C)c1cnc(CC(C)C)c(=O)n1O (stereo unspecified)",
    "growth inhibition": "87% (active)"
  },
  {
    "compound": "CCC(=O)C(CCN1CCC(N2C(=O)C(CCC#N)c3ccccc32)CC1)(c1ccccc1)c1ccccc1 (stereo unspecified)",
    "growth inhibition": "-3% (inactive)"
  }
]
